All figures here come from PubChem BioAssay AID624412.

# Tested on: methionyl-tRNA synthetase (Trypanosoma brucei brucei)
# Test Protocol: T. brucei MetRS inhibitors, confirmation, biochemical, luminescence (AID 624412)
# Experimental Setup: T. brucei MetRS enzyme, luminescence (ATP depletion); at 11.9 µM; hits give high values
In all, about 1,400 compounds went through this assay and about 1,300 (93%) were called active. So high a share suggests a set chosen from earlier hits. A selection follows.
Classes are defined on inhibition with ranges low group: < 20%; middle group: ≥ 20% and < 50%; high group: ≥ 50%

{"columns": ["Molecule", "Assigned Category"],
 "data": [
  ["CCN1CCCC1CNc1ncnc2c1[nH]c1ccc(F)cc12 (stereo not given)", "high group"],
  ["O=C(Cn1c2[n+](c3ccc(C(F)(F)F)cc31)CCCCC2)Nc1c(F)cccc1F", "middle group"],
  ["O=C(O)c1ccc(NS(=O)(=O)c2ccc3c(c2)C(=O)c2cc(S(=O)(=O)Nc4ccc(C(=O)O)cc4)ccc2-3)cc1", "low group"],
  ["Cc1ccc(N2C(=O)CC(NCc3ccc4c(c3)OCO4)C2=O)cc1Cl (stereo not given)", "high group"],
  ["S=c1[nH]nc(CSCc2ccc(Cl)cc2Cl)n1-c1ccccc1", "low group"],
  ["Cc1ccc(CNC(=O)CSc2nnc3c(n2)[nH]c2ccc(F)cc23)cc1", "high group"],
  ["O=C(Nc1ccc(S(=O)(=O)Nc2ncccn2)cc1)c1cncc(Br)c1", "low group"],
  ["CCN(CC)C(=O)C(=O)c1cn(CC(=O)NCc2ccc3c(c2)OCO3)c2ccccc12", "high group"],
  ["O=C(Nc1cccc([N+](=O)[O-])c1)N1CCc2ccccc2C1", "middle group"],
  ["O=C(CSCC(=O)Nc1cccc([N+](=O)[O-])c1)Nc1ccccc1", "low group"]
]}

----------
# System: methionyl-tRNA synthetase (Trypanosoma brucei brucei)
# Test Protocol: T. brucei MetRS inhibitors, confirmation, biochemical, luminescence (AID 624412)
# Experimental Setup: T. brucei MetRS enzyme, luminescence (ATP depletion); at 11.9 µM; hits give high values
The campaign covered roughly 1,400 compounds. About 1,300 (93%) were called active. The set was probably picked from earlier hits. Only a sample is shown.
Kindly return t if reported inhibition is no lower than 40%; return f if it is lower.

{"columns": ["Compound", "Subject Of Test", "Assigned Category"],
 "data": [
  ["Cc1ccccc1OCC(=O)NNC(=O)c1ccc(-n2cncn2)c([N+](=O)[O-])c1", "methionyl-tRNA synthetase (Trypanosoma brucei brucei)", "f"],
  ["COC(=O)/C(=C\\Nc1ccccc1)NC(=O)c1ccc(Cl)cc1Cl", "methionyl-tRNA synthetase (Trypanosoma brucei brucei)", "t"],
  ["O=C(NNC(=O)c1ccc(-n2cncn2)c([N+](=O)[O-])c1)c1ccccc1", "methionyl-tRNA synthetase (Trypanosoma brucei brucei)", "t"],
  ["O=C(CC(=O)Nc1ccc(Cl)c(Cl)c1)N/N=C/c1ccc(O)cc1", "methionyl-tRNA synthetase (Trypanosoma brucei brucei)", "f"],
  ["O=C(O)CCn1c(O)c(C=C2N=c3ccccc3=N2)sc1=S", "methionyl-tRNA synthetase (Trypanosoma brucei brucei)", "t"],
  ["Clc1ccccc1SCc1nc2ccccc2[nH]1", "methionyl-tRNA synthetase (Trypanosoma brucei brucei)", "f"],
  ["COc1ccc(NC(=O)C(NC(C)=O)C(=O)NCc2ccccc2Cl)cc1 (stereo unspecified)", "methionyl-tRNA synthetase (Trypanosoma brucei brucei)", "f"],
  ["OCCNc1nc2ccccc2n1-c1ncnc2sc3c(c12)CCC3", "methionyl-tRNA synthetase (Trypanosoma brucei brucei)", "f"],
  ["Cc1ccc(S(=O)(=O)N(C)C)cc1NC(=O)c1ccc(-n2cncn2)c([N+](=O)[O-])c1", "methionyl-tRNA synthetase (Trypanosoma brucei brucei)", "t"],
  ["O=C(/C(=N\\O)n1cncn1)c1ccc(Br)cc1Br", "methionyl-tRNA synthetase (Trypanosoma brucei brucei)", "f"]
]}
